Ref: the supplement of paper PMC9170038

Test system: MS2 coat protein
Assay: apparent KD of MS2 coat protein; higher = weaker reporter binding
Conditions: Eterna round: R107; input ligand: none
Threshold check on apparent KD of MS2 coat protein: at or above 40 nM gives rule met, strictly below gives rule not met.

# count of solved cases: 8
ACAUGAGGAUCACCCAUGUACAUAAGGGAAGGAGCGCGGUGAGACGCAGGUAGGUCGCCCAUAAUAACAAACAUUAAAUUCAUGU [#25 Same State - Arginine A]    rule not met
ACUAGAGGUGGAAGGAGCGGGAGACAUGAGGAUCACAUGAGGAUCACCCAUGUAGGAUCAUCCCAGGUAGGUCGCCAUGUCGAAA [,mmlmullin]    rule met
UGGCGAGAAGGAAGGAGCGUCAGCUGAGUCACAUGAGGAUCACCCAUGUCGCACAUAGUGUGACAGGUAGGUCGCCUUCUGCCCU [Beinmain]    rule met
GGCACAUAGUCGGCCGCCACUACGUGGAGAUCGGAGUACAUGAGGAUCACCCAUGUAUGGAAGGGUAGGACCGGGACUAUGUGCC [Horalka]    rule met
GAUGAUAUUGCAGAUACCAGACACAUGAGGAUCACCCAUGUCGCUGGGUCGCUGGGUCGUGUCCCUUGGCAGCUGCGAUAUCAUC [Tibet]    rule not met
GGUGGCUCCAUCGAUACCAGCCACCACCGAUAGACCACAUGAGGAUCACCCAUGUUGGGUGGCCCUUGGCAGCGGUGAAGCUGCC [#1 Same State - Theophylline B Attempt #4 (HarryS)]    rule met
UGUAUGGGAACAUGAGGAUCACCCAUGUGGCGAGGACCGGUACGGCCGCCACUCGAGCAGCAAGCGUGUAUGACGCUGCUGCAUG [ss-trypA-0mod]    rule met
GGAUAGGACGGAAGGAGCGACGUGAGGCUAAUGUCCAGUCUUCUACAUGAGGAUCACCCAUGUCAGGUAGGUCGCCGUCCUAUCG [#21 Exclusion - Arginine B]    rule not met

Decide: apparent KD of MS2 coat protein of CUCCCGUGAGCGGCCGCCACUGGAGGCCUCGCGCGACAUGAGGAUCACCCAUGUUGGCCCGGCCUCAGGACCGGGUUCGCGCGAG [Same State - Tryptophan B Attempt #5 (HarryS)] >= 40 nM?
rule not met

Decide: apparent KD of MS2 coat protein of AACAUACAAUUUUAGGUGGAUAUAAGGCGGCGAGGACCGGUACGGCCGCCACUCGCGUACAUGAGGAUCACCCAUGUCUGAAGCU [Same State - Tryptophan A (Freestyle 6)] >= 40 nM?
rule not met

Decide: apparent KD of MS2 coat protein of UUGACAUGAGGAUCACCCAUGUAAACUGAAGGAGCGUCGAAAAUGACAGGUAGGUCGCAGAAUAAUAAUGGUGAUCGUAAAUAUU [#12 Exclusion - Arginine A] >= 40 nM?
rule met

Decide: apparent KD of MS2 coat protein of ACAUGAGGAUCACCCAUGUAUCAACGGGAAGGAGCGCCAAACAAGGCAGGUAGGUCGCCCACAUGAGGAUCACCCGUGUGUUGGG [Exclusion Arginine A GF 30] >= 40 nM?
rule not met

Decide: apparent KD of MS2 coat protein of UGGCGAGAAGGAAGGAGCGUCAGCUGAGUUACAUGAGGAUCACCCAUGUUGCACAUAGUGUGACAGGUAGGUCGCCUUCUGCCCU [SS-ArgB19] >= 40 nM?
rule met

* * *

System: MS2 coat protein
Assay: apparent KD of MS2 coat protein; designed switch direction (-1 OFF switch, 1 ON switch): 1; higher = weaker reporter binding
Settings: input ligand: none
Measured apparent KD of MS2 coat protein, listed per entry for reference.
Express the reported value numerically, then name its unit.

Guide cases for apparent KD of MS2 coat protein, answers given:
GAUUAACAUGAGGAUCACCCAUGUCGUUAUAUGGGAGGAUAUACGUGGACCGUAGUCCGCGUAGAAGGCCUAAUUG [Mat - Same State 1 - Mod of JL - D23] (Eterna round: R96, puzzle: Same State 1)    0.262 µM
AGGCUCAGACUAGGAUAUAUGUGGUCACAUGAGGAUCACCCAUGUCUCGAGCUUCGGCUCGAGGCAUAGAAGGAGUCUGAGCCA [SSNG2/5-D1] (Eterna round: R96, puzzle: Same State NG 2)    0.713 µM
GGAGCCGGCCUAGGAUAUUUCAUAUAUUAACAUGAGGAUCACCCAUGUAGGCCAGAAGGCCUUGGGAAGAAGGAGGUCGGCUCC [Loop Effect - U25,U27,U28] (Eterna round: R96, puzzle: Same State NG 2)    0.0796 µM

Give its apparent KD of MS2 coat protein value. Item: GUGGUCAGACAUGAGGAUCACCCAUGUGGAAUAAAUAAGGGUCAGGAUAUGGAAUAUAGGAUAUACCAGAAGGGAUGGUUGGUG (Eterna round: R96, puzzle: Same State NG 3)
0.0928 µM

Give its apparent KD of MS2 coat protein value. Item: UAAAUAAUGAUAGGAUAUACAUGAGGAAUCCUCGUAGAAGGAUCAUGACAUGAGGAUCACCCAUGUAACGCUCGAAAGAGCGUA [Mat - Same State NG 1 - JL mod - D44] (Eterna round: R96, puzzle: Same State NG 1)
0.219 µM

Give its apparent KD of MS2 coat protein value. Item: GCUCGAAUCACAGCCAACAUGAGGAUCACCCAUGUAUGUUGGUAGGAUAUCGUUUCUAAGGGAAACGAGAAGGGCCGAACGAGC [SameState NG3 #10] (Eterna round: R96, puzzle: Same State NG 3)
0.163 µM

Give its apparent KD of MS2 coat protein value. Item: AACCCAUCGGGAGGAUAUGGCACCUUAUUGGUGCCAGAAGGUCCAACAUGAGGAUCACCCAUGUGGGAGCCGUCGAAAGACGGC [Fiskers NG1ss - 7] (Eterna round: R96, puzzle: Same State NG 1)
0.293 µM

Give its apparent KD of MS2 coat protein value. Item: CCGGAUAAUGGAGGAUAUGGAGCCUUAUUGGCUCCAGAAGGCUAACAUGAGGAUCACCCAUGUAGUCCGGCGGUCAAUAGACCG [Eli NG1ss - 67] (Eterna round: R96, puzzle: Same State NG 1)
0.0216 µM

Give its apparent KD of MS2 coat protein value. Item: UUGAAGAAUUAAGGAUAUCGAGUCAAGAUGUAAAACAUGAGGAUCACCCAUGUGGGUUGCGGUAUCGAGAAGGUAAAUUACAAG [Mat - Same State NG 2 - JL mod - D52] (Eterna round: R96, puzzle: Same State NG 2)
0.0354 µM

* * *

Tested on: MS2 coat protein
Assay: apparent KD of MS2 coat protein; higher = weaker reporter binding
Conditions: Eterna round: R101; input ligand: none
Threshold check on apparent KD of MS2 coat protein: at or above 9 nM gives True, strictly below gives False.

GUAGCAUUGAGAGGAUAUCCAUACCGGAAACGGACAUGAGGAUCACCCAUGUGGCGAAAGCCUUGGGAGAAGGCUCUAUGCUAC [S-state NG2 01] (puzzle (switch architecture): Same State NG 2)    False
AUAUAUAUAUAGAAGGACAUGAGGAUCACCCAUGUCGCCGGGCCCGGGAAACCGGGCCCGGCCAUGUAGGAUAUAUAUAUAUAU [#This is a good prank 12] (puzzle (switch architecture): Inverted Exclusion NG 2)    False
AAUAAUCUUUAAGGAUAUCAGUGGCAAAGCCACUGAGAAGGUGAGGAUCACCCACCUACGUGACCCUGGAAACAGGGUCACGAA [#SharedSequence - ExNG1-10] (puzzle (switch architecture): Exclusion NG 1)    True
AAAUCUCGAGCCGACGGGAGAGUACAUGAGGAUCACCCAUGUGAGGAUAUCCCUGAGAAGACGGCGGAGAAGGCACUGGGUAGG [Erzaribeve] (puzzle (switch architecture): Exclusion NG 3)    False

Now consider the entry below.
Decide: apparent KD of MS2 coat protein of GAGAAGAAGUUAGGAUAUUGGAUAGGGACGGAAUAAGAAGGAGCAAGGGACAUGAGGAUCACCCAUGUAGAAGAAGAGAUCCUC [X-NG1_50] (puzzle (switch architecture): Exclusion NG 1) >= 9 nM?
True

* * *

Tested on: MS2 coat protein
Assay: apparent KD of MS2 coat protein; designed switch direction (-1 OFF switch, 1 ON switch): -1; higher = weaker reporter binding
Conditions: input ligand: FMN 200 uM
Measured apparent KD of MS2 coat protein, listed per entry for reference.
Record the value in nM, omitting the unit from your answer.

AGCCUAGCAGGAUAUGCCCGGGAUAACAUGAGGAUCACCCAUGUGACUGAUUGAUAUCUUGCAGAAGGGCUAGGGA [JL-EX5-4.06 ViennaUCT mod] (Eterna round: R97, puzzle: Exclusion 5)    187

# context switch: different sequence, same apparent KD of MS2 coat protein
Give its apparent KD of MS2 coat protein value. Item: AGUACUAACACGGGUGUGUUAGUACAAUAAGCUUGUGAAACAUGAGGAUCACCCAUGUCCUCAUAAGCUCGUCUUAU [salish99_TOv2_r3_075] (Eterna round: R96, puzzle: Sensor v3, turn-off variant 2)
15.3
